- MEASURED_TARGET: Voltage-gated inwardly rectifying potassium channel KCNH2 (Homo sapiens) (UniProt Q12809)
- Sequence (Q12809 whole entry, looked up): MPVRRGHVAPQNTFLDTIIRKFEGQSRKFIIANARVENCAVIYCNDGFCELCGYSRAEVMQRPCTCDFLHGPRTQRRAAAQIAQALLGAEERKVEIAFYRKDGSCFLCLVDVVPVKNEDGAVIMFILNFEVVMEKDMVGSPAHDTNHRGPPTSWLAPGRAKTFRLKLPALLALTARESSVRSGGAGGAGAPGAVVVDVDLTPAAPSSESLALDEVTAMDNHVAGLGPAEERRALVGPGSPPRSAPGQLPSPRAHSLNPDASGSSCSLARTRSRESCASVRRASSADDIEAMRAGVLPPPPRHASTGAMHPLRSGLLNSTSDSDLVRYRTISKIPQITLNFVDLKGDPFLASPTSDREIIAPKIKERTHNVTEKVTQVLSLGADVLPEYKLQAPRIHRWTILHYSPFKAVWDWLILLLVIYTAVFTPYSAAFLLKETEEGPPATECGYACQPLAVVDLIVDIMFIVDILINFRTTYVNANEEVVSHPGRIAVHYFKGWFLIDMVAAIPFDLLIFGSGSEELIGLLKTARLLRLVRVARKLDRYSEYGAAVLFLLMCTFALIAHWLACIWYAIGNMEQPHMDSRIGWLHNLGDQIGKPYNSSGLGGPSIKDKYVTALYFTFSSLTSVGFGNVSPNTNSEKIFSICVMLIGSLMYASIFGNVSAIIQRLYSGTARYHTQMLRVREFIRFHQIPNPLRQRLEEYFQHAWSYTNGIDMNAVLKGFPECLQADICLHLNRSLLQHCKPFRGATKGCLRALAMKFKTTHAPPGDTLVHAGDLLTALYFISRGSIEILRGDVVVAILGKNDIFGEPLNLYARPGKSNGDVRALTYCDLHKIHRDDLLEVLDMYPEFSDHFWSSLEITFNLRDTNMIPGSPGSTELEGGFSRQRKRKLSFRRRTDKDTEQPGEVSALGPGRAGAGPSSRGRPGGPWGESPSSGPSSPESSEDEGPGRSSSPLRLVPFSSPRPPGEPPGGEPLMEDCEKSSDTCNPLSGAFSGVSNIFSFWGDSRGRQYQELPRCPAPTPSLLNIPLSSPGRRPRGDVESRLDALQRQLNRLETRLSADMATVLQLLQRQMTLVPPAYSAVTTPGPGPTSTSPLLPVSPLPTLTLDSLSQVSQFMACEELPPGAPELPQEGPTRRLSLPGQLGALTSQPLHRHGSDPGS
- METHOD_NOTES: qHTS Assay for Small Molecule Inhibitors of the Human hERG Channel Activity (AID 588834);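 also: lower thallium flux fluorescence means stronger hERG block; nearly all actives have a fitted effect of over 50% in size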; also: potency is read from the fitted curve at half-maximal effect
- PARTICULARS: U2OS BacMam hERG, FluxOR thallium flux fluorescence; series mostly up to 46.1 µM
Inconclusive results are not listed. Activity calls are given as the source filed them. Calls follow the shape of the dose curve; as a rule, active = well fitted inhibition curve with a large enough effect; inconclusive = small, poorly fitted or top-dose-only effect; inactive = flat fitted curve, though single readings scatter.

- MOLECULE: "OCC1O[C@H](O)C(Cl)C(O)C1O (some centres undefined)"
  MEASURED_TARGET: "Voltage-gated inwardly rectifying potassium channel KCNH2 (Homo sapiens) (UniProt Q12809)"
  Potency: "inactive"
- MOLECULE: "C[S+](CC[C@H](N)C(=O)O)C[C@H]1O[C@@H](n2cnc3c(N)ncnc32)[C@H](O)[C@@H]1O (some centres undefined)"
  MEASURED_TARGET: "Voltage-gated inwardly rectifying potassium channel KCNH2 (Homo sapiens) (UniProt Q12809)"
  Potency: "inactive"
- MOLECULE: "CN1[C@@H](CC(=O)c2ccccc2)CCC[C@H]1C[C@H](O)c1ccccc1"
  MEASURED_TARGET: "Voltage-gated inwardly rectifying potassium channel KCNH2 (Homo sapiens) (UniProt Q12809)"
  Potency: "1410 nM (active)"
- MOLECULE: "OC[C@H]1O[C@@H](n2cnc3c(NC4CCCCC4)ncnc32)[C@H](O)[C@@H]1O"
  MEASURED_TARGET: "Voltage-gated inwardly rectifying potassium channel KCNH2 (Homo sapiens) (UniProt Q12809)"
  Potency: "inactive"
